Target: D(1A) dopamine receptor (Homo sapiens) (UniProt P21728)
Sequence (P21728 whole entry, looked up): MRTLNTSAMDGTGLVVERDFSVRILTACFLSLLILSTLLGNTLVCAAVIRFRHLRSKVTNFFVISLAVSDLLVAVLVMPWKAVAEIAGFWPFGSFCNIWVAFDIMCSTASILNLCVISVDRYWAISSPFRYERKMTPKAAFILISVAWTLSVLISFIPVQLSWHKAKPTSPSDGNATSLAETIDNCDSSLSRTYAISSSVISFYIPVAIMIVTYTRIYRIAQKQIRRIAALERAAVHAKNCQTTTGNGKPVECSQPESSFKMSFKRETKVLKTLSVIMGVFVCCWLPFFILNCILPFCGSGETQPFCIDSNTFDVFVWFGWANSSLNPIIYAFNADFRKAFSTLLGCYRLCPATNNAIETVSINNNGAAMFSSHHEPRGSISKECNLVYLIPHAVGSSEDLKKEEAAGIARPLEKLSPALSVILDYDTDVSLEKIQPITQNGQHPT
Assay: Allosteric Agonists of the Human D1 Dopamine Receptor: qHTS; note: 0% is about no effect
Conditions: HEK293 T-REx D1 cells, calcium flux, agonist mode; at 2 µM
The campaign covered roughly 360,000 compounds. About 3,700 (1%) were called active. Cut-off read from the data, not from the text of the source: active = activation above about 30%; inactive = the rest. The full list was thinned out, with actives kept by preference.
Outcomes: active, inactive

compound	cat
CCOc1ccc(CNC(=O)C2CCCN(S(=O)(=O)N(CC)c3ccc(OCC)cc3)C2)cc1 (stereo not given)	inactive
COc1cccc(NS(=O)(=O)c2ccc3[nH]cc(C(=O)NCCCOC(C)C)c(=O)c3c2)c1	active
CCn1c2ccccc2c2nnc(N3CCN(c4cc(C)ccc4C)CC3)nc21	inactive
O=C(NCCc1ccccc1)c1ccc2c(c1)N(Cc1ccccc1)C(=O)c1ccccc1S2(=O)=O	inactive
CCCCN(CC)C(=O)c1c[nH]c2ccc(S(=O)(=O)Nc3cccc(OC)c3)cc2c1=O	inactive
COc1ccc(C(=O)C2CCCN(C(=O)c3cnsn3)C2)c(C)c1 (stereo not given)	inactive
COC(=O)c1sc(-c2ccc(C(C)(C)C)cc2)cc1NC(=O)/C=C/C(=O)O	active
Cc1ccc2ccc3c(c2n1)NS(=O)(=O)c1ccccc1-3	inactive
Cc1ccc2nc(N3C(=O)C(O)=C(C(=O)c4ccco4)C3c3cccc(O)c3)sc2c1 (stereo not given)	inactive
C=CCSc1nnc(N2C(=O)C(O)=C(C(=O)c3ccco3)C2c2ccc(F)cc2)s1 (stereo not given)	active

###

Each record here notes measured activation.
Target: D(1A) dopamine receptor (Homo sapiens) (UniProt P21728)
Experiment: Allosteric Agonists of the Human D1 Dopamine Receptor: qHTS; note: 0% is about no effect
Details: HEK293 T-REx D1 cells, calcium flux, agonist mode; at 2 µM; hits give high values
Method: NIH Chemical Genomics Center [NCGC] NIH Molecular Libraries Probe Centers Network [MLPCN] […] Freshly passaged cells are plated in 1536 well black, clear bottom plates at a density of 4000 cells/well in 3 ul of complete media containing 1x tetracycline inducer. […] Agonist read: A 10 cycle (1 second/cycle) baseline measurement is taken and then the FDSS online 1536 pintool delivers 23 nl of compound library (as well as dopamine controls) to the plate. […]
Screen size: about 360,000 compounds; about 3,700 (1%) were called active. Only a selection was taken, and actives are over-represented in it overall.
readout kind: activation (%)

compound	measurement units	reported measurement
CCOC(=O)/C(C#N)=C/c1ccc(N2CCCCC2)cc1	%	68.9
COc1cccc(NC(=O)N2CCN(C(=O)c3nsc4ccccc34)CC2)c1	%	10.2
COC(=O)c1cc(S(=O)(=O)NC2CCN(Cc3ccccc3)CC2)cn1C	%	6.94
CC(=O)c1ccc(NC(=O)CSc2nnc(NC(=O)Nc3ccccc3)s2)cc1	%	2.71
CCSc1nsc(NC(=O)Nc2cccc(C(C)=O)c2)n1	%	29.4
CC(C)c1ccc(S(=O)(=O)Nc2ccc(O)c(Sc3nc4ccccc4s3)c2)cc1	%	2.29
Cc1ccc2c(=O)c(C(=O)c3ccc(Cl)cc3)cn(CC(=O)NC3CCCCC3)c2n1	%	1.93
COc1ccccc1S(=O)(=O)c1c(C)cc(C)[nH]c1=O	%	3.01
Cc1ccc(NC(=O)c2oc3ccccc3c2NC(=O)Cc2cccs2)cc1	%	5.67
Cc1cc(C)c(/C=C2\C(=O)Nc3ccccc32)[nH]1	%	92.6
Cc1ccc(-c2noc(CSc3nnc(-c4ccc(Cl)cc4)n3C)n2)cc1	%	-2.32
CCCN(CCC)C(=O)C1CCCN(c2ncnc3c2nc2n3CCCCC2)C1 (configuration not stated)	%	-0.793
Cc1c(Cl)cccc1NC(=O)C1CCCN(C(=O)c2cnn(-c3ccccc3)c2-n2cccc2)C1 (configuration not stated)	%	4.43
COc1ccc(/C=C(\C#N)C(=O)ONC2=NCCCCC2)cc1	%	4.53
C=CCSc1nsc(NC(=O)Nc2cccc(C(C)=O)c2)n1	%	34.2
CCCCCCCCCCOC(=O)Cn1c(COc2cccc(OC)c2)[n+](C)c2ccccc21	%	116
CCOC(=O)c1ccc(NC(=O)C2CCN(S(=O)(=O)c3ccc4c(c3)CCCC(=O)N4)CC2)cc1	%	-0.195
N=c1c2c(-c3ccccc3)c(-c3ccccc3)n(Cc3ccccc3)c2ncn1CCCO	%	112
CCN(Cc1ccccc1)Cc1c(O)ccc2c(=O)c(-c3ccc(Cl)cc3Cl)coc12	%	-1.31
CCOC(=O)/C(C#N)=C\c1c(C)cc(C)c(COC(C)=O)c1C	%	0.226
O=S(=O)(NCC1CC1)c1ccc(F)c(Cl)c1	%	0.965
Cc1nnc(NC(=O)CSc2nc3c([nH]c4ccccc43)c(=O)n2-c2cccc(Cl)c2)s1	%	-0.131
